Procedure Summary: Pharmacokinetic study in SD male rats
Type: in vivo
Assay Conditions: rat, plasma, po, gavage 5.0 mg/kg, read-out: tz1/2 po (terminal elimination half-life) (converted)
Protocol: Experimental Example 3: Pharmacokinetic Study of Compounds in SD Male Rats […] The results of the concentrations of the compounds under test were output using Analyst 1.6.3 of AB. Parameters such as mean, standard deviation, coefficient of variation was calculated by Microsoft Excel (parameters directly output by Analyst 1.6.3 needed no calculation), and PK parameters were calculated by WinNonlin Phenoix 8.2 software NCA (Tmax as the median).
Each record is given label 1 if its reported half-life is strictly below 6 h. Records at or above 6 h are given label 0.

Report whether reported half-life is lower than 6 h (strictly) for C#Cc1ccc(-c2nnc(N[C@@H]3CCCN(C)C3)cc2C2CC2)c(O)c1 [Compound 173]
label 1

Hello, is half-life of the following molecule strictly smaller than 6 h? CC#Cc1ccc(-c2nnc(N[C@@H]3CCCN(C)C3)cc2C2CC2)c(O)c1 [Compound 264]
label 0

Identify whether the molecule C#Cc1ccc(-c2nnc(N[C@@H]3CCCN(C)C3)cc2C)c(O)c1 [Compound 54] records half-life below 6 h.
label 1

I'd appreciate it if you could check whether C#Cc1ccc(-c2nnc(N[C@H]3C[C@@](C)(O)C3)cc2C)c(O)c1 [Compound 55] has half-life smaller than 6 h.
label 0

Quick check: does CC#Cc1ccc(-c2nnc(N[C@@H]3CCCN(C)C3)cc2C)c(O)c1 [Compound 174] have half-life under 6 h?
label 1

====

Procedure Summary: Pharmacokinetic study in beagles
Format: in vivo
Assay Conditions: beagle, dog, plasma; male beagles, iv 1.0 mg/kg / po 1.0 mg/kg; read-out: F % (absolute bioavailability)
Consider the following molecules; for each one, report its bioavailability.
Numbers only; they are read as %.

So what's the measured bioavailability for this one? C#Cc1ccc(-c2nnc(N[C@@H]3CCCN(C)C3)nc2C)c(O)c1 [Compound 177]
154

Look up bioavailability for this molecule: CC#Cc1ccc(-c2nnc(N[C@@H]3CCCN(C)C3)nc2C)c(O)c1 [Compound 195]
90.7

Could you share which bioavailability value was measured for CC#Cc1ccc(-c2nnc(N[C@@H]3CCCN(C)C3)cc2C)c(O)c1 [Compound 174] ?
83.8

====

Procedure Summary: Pharmacokinetic study in C57BL/6J mice
Format: in vivo
Assay Conditions: mouse, plasma, po; C57BL/6J female mice, gavage 10 mg/kg; read-out: Cmax po (peak concentration)
Measured Attribute: Cmax (ng/mL)
Give the quantity in ng/mL, number only.

What Cmax value was documented for this compound, C#Cc1ccc(-c2nnc(N[C@@H]3CCCN(C)C3)cc2C)c(O)c1 ?
820

Given CC#Cc1ccc(-c2nnc(N[C@@H]3CCCN(C)C3)nc2C)c(O)c1 , state its recorded Cmax.
1230

I would be grateful if you could share the reported Cmax for C#Cc1ccc(-c2nnc(N[C@@H]3CCCN(C)C3)nc2C2CC2)c(O)c1 .
1120

Which measured Cmax value corresponds to CC#Cc1ccc(-c2nnc(N[C@@H]3CCCN(C)C3)cc2C)c(O)c1 ?
3160

For the compound shown here, C#Cc1ccc(-c2nnc(N[C@@H]3CCCN(C)C3)c3ccccc23)c(O)c1 , give the reported Cmax.
1530

Consider the compound shown here: C#Cc1ccc(-c2nnc(N[C@@H]3CCCN(C)C3)c3c2CCCC3)c(O)c1 What is its recorded Cmax?
428

Tell me the measured Cmax of C#Cc1ccc(-c2nnc(N[C@@H]3CCCN(CCO)C3)cc2C)c(O)c1 , please.
2320
